Record: compiled IC50 on Fibroblast growth factor receptor 1 (Homo sapiens, UniProt P11362) from multiple reports.
REPORTED_ENDPOINT: IC50

>>> df
                                    molecule  reported_endpoint           result
 0  COc1cc2nccc(Oc3ccc(NC(=S)NC4CC4)c(Cl)c3)c2cc1C(=O)NO               IC50   200 to 1000 nM
 1  CCOc1ccc(Nc2ncnc(Nc3ccc(C)c(O)c3)n2)cc1OCC               IC50  1050 to 6290 nM
 2  COc1cc(Nc2ncnc(Nc3cccc4ccccc34)n2)cc(OCCN2CCOCC2)c1OC               IC50   796 to 4780 nM
 3  C=CC(=O)Nc1cccc(F)c1Nc1ccc(/C(F)=C/c2c(Cl)c(OC)cc(OC)c2Cl)cn1               IC50       > 10000 nM
 4  COc1cc(OC)c(F)c(N2Cc3cnc(N)c(-c4cnn(C)c4)c3N(C)C2=O)c1F               IC50         < 100 nM
 5  C[C@@H](Oc1ccc2[nH]nc(/C=C/c3cccc(CN4CCC(O)C4)c3)c2c1)c1c(Cl)cncc1Cl (some centres unmarked)               IC50          ≤ 10 nM
 6  COc1cc(Nc2ncnc(Nc3ccc4c(cnn4Cc4ccccc4)c3)n2)cc(OC)c1OC               IC50  4960 to 7240 nM
 7  CC(Oc1ccc2[nH]nc(/C=C/c3ccc(N4CCN(C)CC4)nc3)c2c1)c1c(Cl)cncc1Cl (centres unmarked)               IC50      10 to 50 nM
 8  COC1CCN(Cc2ccc(/C(F)=C/c3n[nH]c4ccc(O[C@H](C)c5c(Cl)cncc5Cl)cc34)cn2)C1 (some centres unmarked)               IC50          ≤ 10 nM
 9  N#Cc1cnc(NC(=O)N2CCCc3cc(CN4CCOCC4=O)c(C=O)nc32)cc1NCCN1CCCC1               IC50       > 10000 nM
10  CC(C)(O)CCn1cc(-c2ccc3c(c2)ncn3-c2cc(NS(=O)(=O)C3CC3)cc(-c3ccc(F)cc3F)c2)nn1               IC50             7 nM
11  CN1CCN(c2ccc(Nc3ncc4cc(C#N)c(=O)n(C5CCCC5)c4n3)cc2)CC1               IC50          68.2 nM
12  C=CC(=O)NCc1cc2c(cn1)CN(c1c(F)c(OC)cc(OC)c1F)C(=O)N2Cc1cccc(F)c1               IC50     30 to 200 nM
13  CC(=O)Nc1cc(-c2ccc(F)cc2)cc(-n2cnc3cc(-n4cccn4)ccc32)c1               IC50            10 nM
14  CCc1c(-c2ccc(N3CCN(C)CC3)cc2)[nH]c2ncc(CCc3cc(OC)cc(OC)c3)nc12               IC50         < 100 nM
15  CNC(=O)C1CCN(Cc2ccc(/C=C/c3n[nH]c4ccc(OC(C)c5c(Cl)cncc5Cl)cc34)cc2)CC1 (centres unmarked)               IC50          ≤ 10 nM
16  COc1cc(OC)c(F)c(N2Cc3cnc(N)c(Oc4ccccc4)c3N(C)C2=O)c1F               IC50         < 100 nM
17  COc1cc2nccc(Oc3ccc(NC(=S)NCCc4ccccc4)c(Cl)c3)c2cc1C(N)=O               IC50   200 to 1000 nM
18  COc1cc(OC)c(Cl)c(-c2cc3[nH]nc(-c4cnn(CC(=O)N5CCOCC5)c4)c3cn2)c1Cl               IC50         < 100 nM
19  COc1cc(Nc2ncnc(Nc3ccc(Br)c4ccccc34)n2)cc(OC)c1OC               IC50   829 to 4980 nM
20  COc1cc2nccc(Oc3ccc(NC(=S)NCc4ccccn4)c(Cl)c3)c2cc1C(N)=O               IC50   200 to 1000 nM
21  COc1cc(Nc2ncnc(Nc3ccc(Br)cc3F)n2)cc(OC)c1OC               IC50  5330 to 7770 nM
22  CCN1CCC(Nc2ccc3c(c2)/C(=C(\c2cccc(C(F)(F)F)c2)c2ncc[nH]2)C(=O)N3)CC1               IC50     50 to 500 nM
23  O=C(Nc1cnc(Nc2ccc(CCCN3CCCC3)cc2)nc1)c1c(Cl)cccc1Cl               IC50       > 10000 nM
24  NC(=O)c1ccc(Nc2ncnc(-n3c(N)nc4ccccc43)n2)cc1               IC50        < 1150 nM
25  COc1cc2nccc(Oc3ccc(NC(=O)N4CCCC4)c(Cl)c3F)c2cc1C(N)=O               IC50   200 to 1000 nM
26  COc1cc(CCc2cnc3[nH]c(-c4cnn(C[C@H](C)O)c4)cc3n2)cc(OC)c1               IC50         < 100 nM
27  CNC(=O)c1cc(-c2cc3nc(CCc4cc(OC)cc(OC)c4)cnc3[nH]2)ccn1               IC50         < 100 nM
28  CC(=O)NCc1ccc(Nc2ncnc(Nc3cc(-c4ccco4)n[nH]3)n2)cc1               IC50  1020 to 6150 nM
29  COCCN1CCC(Nc2ccc3c(c2)/C(=C(\c2cc(F)cc(F)c2)c2nc4ccccc4[nH]2)C(=O)N3)CC1               IC50          < 50 nM
30  COc1cc(Nc2ncnc(-n3c(NCc4ccccn4)nc4ccccc43)n2)cc(OC)c1OCCN1CCOCC1               IC50         < 685 nM
31  COc1cc(OC)c(F)c(N2Cc3cnc(N)c(-c4ccc(F)cc4)c3N(C)C2=O)c1F               IC50         < 100 nM

---

pIC50: −log10 of the molar value.
Record: compiled pIC50 on Fibroblast growth factor receptor 1 (Homo sapiens) from multiple reports.
REPORTED_ENDPOINT: pIC50

>>> df
                                   compound  reported_endpoint        result
0  COc1cc(OC)c(Cl)c(-c2ncc3c(-c4ccc5c(c4)CCN(C)C5=O)n[nH]c3n2)c1Cl              pIC50        > 7.00
1  CCNC(=S)Nc1ccc(Oc2ccnc3cc(OC)c(C(N)=O)cc23)cc1Cl              pIC50  6.70 to 7.30
2  Cn1cc(-c2ccc3c(c2)ncn3-c2cc(-c3ccc(F)cc3F)cc(NS(=O)(=O)C3CC3)n2)nn1              pIC50          8.33
3  COc1ccc2c(Oc3ccc(NC(=S)N4CC(F)(F)C4)c(Cl)c3)ccnc2c1              pIC50  6.00 to 6.70
4  CC(Oc1ccc2[nH]nc(/C=C(\F)c3ccc(CNC4CCOCC4)nc3)c2c1)c1cc(F)cc(F)c1 (centres unmarked)              pIC50        ≥ 8.00
5  C=CC(=O)NCc1cc2c(cn1)CN(c1c(F)c(OC)cc(OC)c1F)C(=O)N2C[C@H]1CCOC1              pIC50        < 6.70
6  COCCOc1c(N)ncc2c1N(C)C(=O)N(c1c(F)c(OC)cc(OC)c1F)C2              pIC50        > 7.00
7  COCCN1CCC(Nc2ccc3c(c2)/C(=C(\c2cccc(F)c2)c2nc4ccccc4[nH]2)C(=O)N3)CC1              pIC50  6.30 to 7.30

---

Record: compiled pIC50 on Fibroblast growth factor receptor 1 (Homo sapiens, UniProt P11362) from multiple reports.
pIC50: −log10 of the molar value.
REPORTED_ENDPOINT: pIC50

>>> print(df.to_string())
                                    molecule                          target_or_system  reported_endpoint        result
 0  C#Cc1cccc(Nc2ncnc(Nc3ccc(OC)c(OC)c3)n2)c1  Fibroblast growth factor receptor 1 (Homo sapiens, UniProt P11362)              pIC50        < 4.89
 1  CC(Oc1ccc2[nH]nc(/C=C(\F)c3ccc(CN4CCOCC4)nc3)c2c1)c1c(Cl)cncc1Cl (stereo not drawn)  Fibroblast growth factor receptor 1 (Homo sapiens, UniProt P11362)              pIC50  7.30 to 8.00
 2  COCC(=O)N(C)Cc1cc2c(nc1C=O)N(C(=O)Nc1cc(N[C@@H]3COC[C@H]3OC)c(C#N)cn1)CCC2 (relative stereo)  Fibroblast growth factor receptor 1 (Homo sapiens, UniProt P11362)              pIC50        < 5.00
 3  COc1ccc(Nc2ncnc(-n3c(N)nc4ccccc43)n2)cc1O  Fibroblast growth factor receptor 1 (Homo sapiens, UniProt P11362)              pIC50        > 5.94
 4  [2H]C([2H])([2H])NC(=S)Nc1ccc(Oc2ccnc3cc(OC)c(C(N)=O)cc23)c(F)c1Cl  Fibroblast growth factor receptor 1 (Homo sapiens, UniProt P11362)              pIC50        > 7.30
 5  CC(Oc1ccc2[nH]nc(-c3ccc(C(=O)N4CCC(O)C4)cc3)c2c1)c1c(Cl)cncc1Cl (stereo not drawn)  Fibroblast growth factor receptor 1 (Homo sapiens, UniProt P11362)              pIC50  6.00 to 7.30
 6  C[C@@H](Oc1ccc2[nH]nc(/C=C(\F)c3ccc(OC4CCOCC4)nc3)c2c1)c1c(Cl)cncc1Cl  Fibroblast growth factor receptor 1 (Homo sapiens, UniProt P11362)              pIC50  6.00 to 7.30
 7  O=S(=O)(Nc1cc(-c2ccc(F)cc2F)cc(-n2cnc3cc(-c4cnco4)ccc32)c1)c1ccccc1  Fibroblast growth factor receptor 1 (Homo sapiens, UniProt P11362)              pIC50          7.68
 8  COc1ccc(Cl)c(Cc2c[nH]c3ncc(-c4cnn(C5CCNCC5)c4)nc23)c1Cl  Fibroblast growth factor receptor 1 (Homo sapiens, UniProt P11362)              pIC50          7.07
 9  COc1cc(OC)c(F)c(-c2cc3[nH]nc(-c4ccc5c(c4)CN([C@H]4CC[C@H](O)CC4)C5=O)c3cn2)c1F  Fibroblast growth factor receptor 1 (Homo sapiens, UniProt P11362)              pIC50        > 7.00
10  CNC(=O)c1cc(-c2cnn3cc(-c4cnc(NC)c(C)c4)c(O[C@H]4CCOC4)nc23)c(F)c(C(F)F)c1  Fibroblast growth factor receptor 1 (Homo sapiens, UniProt P11362)              pIC50        ≤ 6.70
11  Cc1[nH]c(/C=C2\C(=O)Nc3cccc(-c4ccc(Br)cc4)c32)c(C)c1C(=O)N1C[C@@H](C)N[C@@H](C)C1  Fibroblast growth factor receptor 1 (Homo sapiens, UniProt P11362)              pIC50          6.59
12  CCN(CC)CCNC(=O)c1c(C)[nH]c(/C=C2\C(=O)Nc3cccc(-c4cccc(Cl)c4)c32)c1C  Fibroblast growth factor receptor 1 (Homo sapiens, UniProt P11362)              pIC50          7.54
13  Cc1cc(C(=O)NCCn2ccnn2)c(/C=C2\C(=O)Nc3cccc(-c4cccc(Cl)c4)c32)[nH]1  Fibroblast growth factor receptor 1 (Homo sapiens, UniProt P11362)              pIC50          6.30
14  COc1cc(OC)c(F)c(-c2ncc3c(-c4ccc5ncccc5c4)n[nH]c3n2)c1F  Fibroblast growth factor receptor 1 (Homo sapiens, UniProt P11362)              pIC50        > 7.00
